# Tested on: trypsin
# protocolNotes: in vitro
# testConditions: isolated enzyme trypsin
measurementLabel: remaining at 24 h, 100 µM (%)
Hi! Could you send only the number? It should be in %, unit omitted.

Q. Need remaining at 24 h, 100 µM of CCCCCCCCCCCCCC(=O)N[C@@H](CC(N)=O)C(=O)N[C@@H](CC(C)C)C(=O)N[C@]1(C)CCCCCCC=CCCC[C@@](C)(C(=O)N[C@@H](CCC(=O)O)C(=O)N[C@@H](CC(C)C)C(=O)N[C@@H](CC(N)=O)C(N)=O)NC(=O)[C@H](CC(C)C)NC(=O)[C@H](CC(C)C)NC(=O)[C@H](CCCNC(=N)N)NC(=O)[C@H](CC(=O)O)NC(=O)[C@H](CC(C)C)NC(=O)[C@H](CCC(=O)O)NC1=O [compound 2012] , thanks.
A. 97

* * *

# Tested on: trypsin
# protocolNotes: in vitro
# testConditions: isolated enzyme trypsin
measurementLabel: remaining at 48 h, 100 µM (%)
Express it in %; write the number only.

Q. Requested field: remaining at 48 h, 100 µM. Item: CCCCCCCCCCCCCC(=O)N[C@@H](CC(N)=O)C(=O)N[C@@H](CC(C)C)C(=O)N[C@]1(C)CCCCCCC=CCCC[C@@](C)(C(=O)N[C@@H](CCC(=O)O)C(=O)N[C@@H](CC(C)C)C(=O)N[C@@H](CC(N)=O)C(N)=O)NC(=O)[C@H](CC(C)C)NC(=O)[C@H](CC(C)C)NC(=O)[C@H](CCCNC(=N)N)NC(=O)[C@H](CC(=O)O)NC(=O)[C@H](CC(C)C)NC(=O)[C@H](CCC(=O)O)NC1=O
A. 89

* * *

# Tested on: trypsin
# protocolNotes: Trypsin proteolytic resistance assay
# testConditions: immobilized trypsin-agarose resin
Bridge positions count the residues as written; N and C are the ends. Square brackets hold non-standard residues; d marks the D form. Peptide text beside a SMILES is read from it. * marks the point of attachment. Myristoyl = CCCCCCCCCCCCCC(=O)*; R8 = C=CCCCCCC[C@@](C)(N)C(=O)O; S5 = C=CCCC[C@](C)(N)C(=O)O
measurementLabel: remaining at 3 h, 100 µM (%)
Express your answer in %, writing the number without its unit.

{"molecule": "CC(=O)N[C@@H](CC(N)=O)C(=O)N[C@@H](CC(C)C)C(=O)N[C@@H](CO)C(=O)N[C@@H](CCC(=O)O)C(=O)N[C@@H](CC(C)C)C(=O)N[C@@H](CC(=O)O)C(=O)N[C@@H](CCCNC(=N)N)C(=O)N[C@@H](CC(C)C)C(=O)N[C@@H](CC(C)C)C(=O)N[C@@H](CC(C)C)C(=O)N[C@@H](CCC(=O)O)C(=O)N[C@@H](CC(C)C)C(=O)N[C@@H](CC(N)=O)C(N)=O [LD2, reference compound]", "resultUnits": "%", "remaining at 3 h, 100 µM": 16}
{"molecule": "CCCCCCCCCCCCCC(=O)N[C@@H](CC(N)=O)C(=O)N[C@@H](CC(C)C)C(=O)N[C@]1(C)CCCCCCC=CCCC[C@@](C)(C(=O)N[C@@H](CCC(=O)O)C(=O)N[C@@H](CCC(=O)O)C(=O)N[C@@H](CC(N)=O)C(N)=O)NC(=O)[C@H](CC(C)C)NC(=O)[C@H](CC(C)C)NC(=O)[C@H](CCCNC(=N)N)NC(=O)[C@H](CC(=O)O)NC(=O)[C@H](CCC(=O)O)NC(=O)[C@H](CCC(=O)O)NC1=O [compound 2020] (Myristoyl-NL[R8]EEDRLL[S5]EEN-NH2; staple 3-10)", "resultUnits": "%", "remaining at 3 h, 100 µM": 90}

Moving on to another molecule below.
Q. Fill in: remaining at 3 h, 100 µM of CC(=O)N[C@@H](CC(N)=O)C(=O)N[C@@H](CC(C)C)C(=O)N[C@]1(C)CCCCCCC=CCCC[C@@](C)(C(=O)N[C@@H](CCC(=O)O)C(=O)N[C@@H](CC(C)C)C(=O)N[C@@H](CC(N)=O)C(N)=O)NC(=O)[C@H](CC(C)C)NC(=O)[C@H](CC(C)C)NC(=O)[C@H](CCCNC(=N)N)NC(=O)[C@H](CC(=O)O)NC(=O)[C@H](CC(C)C)NC(=O)[C@H](CCC(=O)O)NC1=O is ___
A. 62
